The measurements presented in this section are drawn from ChEMBL document CHEMBL1132164.

system: Human immunodeficiency virus 1; assay: Tested for antiviral activity against HIV-III B strain infected human lymphocyte derived CEM cells; assay type: functional, organism-based, CCRF-CEM; details: Human immunodeficiency virus 1, CCRF-CEM
metric_name: EC50 (µM)
# value in µM; strip the unit string

Lookup: # query: EC50 of entry Cc1cc(SC2=C(O)OC(CCc3ccc(O)cc3)(C(C)C)CC2=O)c(C(C)(C)C)cc1N (stereo unspecified)
Found: 1

Lookup: Do the same for Cc1cc(SC2=C(O)OC(CCc3ccc(O)cc3)(C3CC3)CC2=O)c(C(C)(C)C)cc1N (stereo unspecified) please
Found: 2.5

Lookup: Another: Cc1cc(SC2=C(O)OC(C)(CCc3ccc(O)cc3)CC2=O)c(C(C)(C)C)cc1N (stereo unspecified)
Found: 9.4

Lookup: Another compound to check: Cc1cc(SC2=C(O)OC(CCc3ccc(O)cc3)(C3CCCCC3)CC2=O)c(C(C)(C)C)cc1N (stereo unspecified)
Found: 10

Lookup: Moving on to the next compound: Cc1cc(SC2=C(O)OC(CCc3ccccc3)(C(C)C)CC2=O)c(C(C)(C)C)cc1N (stereo unspecified)
Found: 1.9

Lookup: Consider next the compound CCCC1(CCc2ccc(O)cc2)CC(=O)C(Sc2cc(C)c(N)cc2C(C)(C)C)=C(O)O1 (stereo unspecified) in the same way.
Found: 4.1

###

test system: Human immunodeficiency virus 1; test: Tested for antiviral activity against HIV-III B strain infected human lymphocyte derived CEM cells; assay type: functional, organism-based, CCRF-CEM; conditions: Human immunodeficiency virus 1, CCRF-CEM
metric_name: pEC50
Lab note: report pEC50 as minus log10 of the concentration in molar units, number only.

Lookup: Field request: pEC50 | item: Cc1cc(SC2=C(O)OC(CCc3ccc(O)cc3)(C(C)C)CC2=O)c(C(C)(C)C)cc1NC(=O)c1ccncc1 (stereo not drawn)
Found: 5.29

Lookup: Record: Cc1cc(SC2=C(O)OC(CCc3ccc(O)cc3)(C(C)C)CC2=O)c(C(C)(C)C)cc1NC(=O)c1ccccn1 (stereo not drawn)
Found: 5.82

Lookup: Now the same for Cc1cc(SC2=C(O)OC(CCc3ccc(O)cc3)(C3CCCC3)CC2=O)c(C(C)(C)C)cc1N (stereo not drawn)
Found: 5.42

Lookup: Next up: Cc1cc(SC2=C(O)OC(CCc3ccc(O)cc3)(C(C)C)CC2=O)c(C(C)(C)C)cc1NC(=O)CC(C)(C)C (stereo not drawn)
Found: 4.80

Lookup: Proceed to Cc1cc(SC2=C(O)OC(CCc3ccc(O)cc3)(C(C)C)CC2=O)c(C(C)(C)C)cc1NC(=O)c1cccnc1 (stereo not drawn)
Found: 5.31

Lookup: And then Cc1cc(SC2=C(O)OC(CCc3ccc(O)cc3)(C(C)C)CC2=O)c(C(C)(C)C)cc1NC(=O)c1ccc(C(F)(F)F)cc1 (stereo not drawn) , what is it?
Found: 5.30

###

tested on: Human immunodeficiency virus 1; experiment: Tested for antiviral activity against HIV-III B strain infected human lymphocyte derived CEM cells; type: functional, organism-based, CCRF-CEM; settings: Human immunodeficiency virus 1, CCRF-CEM
Give pEC50 for every item shown.
Schema: pEC50 number; meaning minus log10 of the concentration expressed in molar units.

Lookup: What value of pEC50 has been recorded for this entry: Cc1cc(SC2=C(O)OC(CCc3ccccc3)(C(C)C)CC2=O)c(C(C)(C)C)cc1NC(=O)c1ccc(C#N)cc1 (stereo not drawn)
Found: 5.08

Lookup: Also Cc1cc(SC2=C(O)OC(CCc3ccc(O)cc3)(C(C)C)CC2=O)c(C(C)(C)C)cc1NC(=O)c1ccc(C#N)cc1 (stereo not drawn) , if possible.
Found: 5.39

Lookup: Then this compound: Cc1cc(SC2=C(O)OC(CCc3ccc(O)cc3)(C(C)C)CC2=O)c(C(C)(C)C)cc1NC(=O)c1cccc(C#N)c1 (stereo not drawn)
Found: 4.85

Lookup: What about this compound? Cc1cc(SC2=C(O)OC(CCc3ccc(N)cc3)(C(C)C)CC2=O)c(C(C)(C)C)cc1N (stereo not drawn)
Found: 6.05

Lookup: And CC(=O)Nc1cc(C(C)(C)C)c(SC2=C(O)OC(CCc3ccccc3)(C(C)C)CC2=O)cc1C (stereo not drawn) ?
Found: 5.74

Lookup: Try this compound too: CC(=O)Nc1cc(C(C)(C)C)c(SC2=C(O)OC(CCc3ccc(O)cc3)(C(C)C)CC2=O)cc1C (stereo not drawn)
Found: 5.32

Lookup: Can you check Cc1cc(SC2=C(O)OC(CCc3ccc(O)cc3)(C(C)C)CC2=O)c(C(C)(C)C)cc1N(C)C (stereo not drawn) next?
Found: 5.72

###

experiment: Maximum concentration obtained in mouse plasma was determined at dose 25 mg/kg; type: ADME, organism-based; set-up: dose 25 mg/kg
metric_name: Cmax (µM)
Lab book: enter the figure in µM, no units written.

Lookup: State the recorded Cmax for this entry: Cc1cc(SC2=C(O)OC(CCc3ccc(O)cc3)(C(C)C)CC2=O)c(C(C)(C)C)cc1N (stereo unspecified)
Found: 21

###

assay: Bioavailability was obtained by the comparison of AUC of subcutaneous dosing and AUC of oral dosing in mouse; type: ADME, organism-based; settings: in vivo, read-out: Bioavailabiility
metric_name: bioavailability (%)
Express it in %; write the number only.

Lookup: Would you mind telling me what bioavailability value was observed for Cc1cc(SC2=C(O)O[C@](CCc3ccc(O)cc3)(C(C)C)CC2=O)c(C(C)(C)C)cc1N (stereo in doubt; 15S) ?
Found: 100

###

experiment: Half life in dog plasma was determined at dose 10 mg/kg; type: ADME, organism-based, Canis lupus familiaris; parameters: dose 10 mg/kg
metric_name: half-life (h)
Record the value in h, omitting the unit from your answer.

Lookup: What measured half-life goes with Cc1cc(SC2=C(O)O[C@](CCc3ccc(O)cc3)(C(C)C)CC2=O)c(C(C)(C)C)cc1N (stereo in doubt; 15S) ?
Found: 1.7

###

assay: Therapeutic index was determined; conditions: read-out: TI
metric_name: selectivity ratio
Reply briefly: the number, and no unit.

Lookup: I would be grateful if you could share the reported selectivity ratio for "Cc1cc(SC2=C(O)O[C@](CCc3ccc(N)cc3)(C(C)C)CC2=O)c(C(C)(C)C)cc1CO" .
Found: 1050

###

system: Human immunodeficiency virus 1; experiment: Tested for antiviral activity against HIV-III B strain infected human lymphocyte derived CEM cells; format: functional, organism-based, CCRF-CEM; conditions: Human immunodeficiency virus 1, CCRF-CEM
metric_name: EC50 (µM)
Provide the reading as a plain figure in µM.

Lookup: For the molecule shown here, CCCCC1(CCc2ccc(O)cc2)CC(=O)C(Sc2cc(C)c(N)cc2C(C)(C)C)=C(O)O1 (centres undefined) , give the reported EC50.
Found: 3.7

Lookup: Subsequent entry: Cc1cc(SC2=C(O)OC(CCc3ccc(O)cc3)(CC(C)C)CC2=O)c(C(C)(C)C)cc1N (centres undefined)
Found: 8.1

Lookup: Try this molecule next: "Cc1cc(SC2=C(O)O[C@](CCc3ccc(O)cc3)(C(C)C)CC2=O)c(C(C)(C)C)cc1CO"
Found: 0.46

Lookup: Lookup Cc1cc(SC2=C(O)OC(CCc3ccc(O)cc3)(C(C)C)CC2=O)c(C(C)(C)C)cc1NC(=O)c1ccccc1 (centres undefined)
Found: 5.4

###

experiment: Maximum concentration obtained in dog plasma was determined; assay type: ADME, organism-based, Canis lupus familiaris
metric_name: Cmax (µM)
I only need the number, in µM, no unit after it.

Lookup: Given the entry Cc1cc(SC2=C(O)O[C@](CCc3ccc(O)cc3)(C(C)C)CC2=O)c(C(C)(C)C)cc1N (stereo in doubt; 15S) , report its measured Cmax.
Found: 71

###

test system: HIV protease; assay: Therapeutic index for HIV protease was determined; conditions: read-out: Therapeutic index
Give measured selectivity ratio for each item. Keep answers brief.

Lookup: So what's the measured selectivity ratio for this one? Cc1cc(SC2=C(O)OC(CCc3ccc(O)cc3)(C(C)C)CC2=O)c(C(C)(C)C)cc1NC(=O)c1cccnc1 (centres undefined)
Found: > 20

Lookup: # iterate: CCCCCC1(CCc2ccc(O)cc2)CC(=O)C(Sc2cc(C)c(N)cc2C(C)(C)C)=C(O)O1 (centres undefined)
Found: < 1

Lookup: One more molecule: Cc1cc(SC2=C(O)OC(C)(CCc3ccc(O)cc3)CC2=O)c(C(C)(C)C)cc1O (centres undefined)
Found: < 1

Lookup: Same again, this time with Cc1cc(SC2=C(O)OC(CCc3ccccc3)(c3ccccc3)CC2=O)c(C(C)(C)C)cc1N (centres undefined)
Found: < 1
